Target: S-methyl-5'-thioadenosine phosphorylase (Homo sapiens)
Sequence (Q13126 whole entry): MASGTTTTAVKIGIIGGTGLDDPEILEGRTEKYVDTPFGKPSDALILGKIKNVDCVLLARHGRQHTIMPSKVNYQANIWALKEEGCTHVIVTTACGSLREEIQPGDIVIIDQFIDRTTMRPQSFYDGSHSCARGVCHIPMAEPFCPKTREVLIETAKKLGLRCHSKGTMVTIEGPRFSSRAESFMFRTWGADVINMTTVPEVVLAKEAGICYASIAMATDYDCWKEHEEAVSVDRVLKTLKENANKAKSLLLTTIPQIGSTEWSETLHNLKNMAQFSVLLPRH
Test: Binding affinity to recombinant human N-terminal TEV cleavage site-fused-His6-tagged MTAP expressed in Escherichia coli BL21-CodonPlus(DE3)-RIPL competent cells assessed as reduction in MTA hydrolysis measured after 40 mins in presence of xanthine oxidase
outcome measure: Kd (nM)

INSERT INTO results (chemical_structure, assayed_system, val) VALUES
  ('Nc1ncnc2c(CN3C[C@H](CSc4ncccn4)[C@@H](O)C3)c[nH]c12', 'S-methyl-5''-thioadenosine phosphorylase (Homo sapiens)', 13),
  ('Nc1ncnc2c(CN3C[C@H](CSCc4cn(Cc5ccccc5)nn4)[C@@H](O)C3)c[nH]c12', 'S-methyl-5''-thioadenosine phosphorylase (Homo sapiens)', 13),
  ('CSC[C@H]1CN(Cc2c[nH]c3c(N)nccc23)C[C@@H]1O', 'S-methyl-5''-thioadenosine phosphorylase (Homo sapiens)', 31.9),
  ('Cn1cc(CSC[C@H]2CN(Cc3c[nH]c4c(N)ncnc34)C[C@@H]2O)nn1', 'S-methyl-5''-thioadenosine phosphorylase (Homo sapiens)', 66),
  ('CCCCn1cc(CSC[C@H]2CN(Cc3c[nH]c4c(N)ncnc34)C[C@@H]2O)nn1', 'S-methyl-5''-thioadenosine phosphorylase (Homo sapiens)', 37),
  ('C#CCCCSC[C@H]1CN(Cc2c[nH]c3c(N)ncnc23)C[C@@H]1O', 'S-methyl-5''-thioadenosine phosphorylase (Homo sapiens)', 0.94),
  ('Nc1ncnc2c(CN3C[C@H](CSCCCc4cn(Cc5ccccc5)nn4)[C@@H](O)C3)c[nH]c12', 'S-methyl-5''-thioadenosine phosphorylase (Homo sapiens)', 1.4),
  ('CSC[C@H]1CN(Cc2[nH]nc3c(N)ncnc23)C[C@@H]1O', 'S-methyl-5''-thioadenosine phosphorylase (Homo sapiens)', 19);

The reported measurements were obtained from ChEMBL document CHEMBL4340523.
